- Assay System: Thioredoxin reductase 1, cytoplasmic (Rattus norvegicus)
- Test Details: qHTS Assay for Substrates of Mammalian Selenoprotein Thioredoxin Reductase 1 (TrxR1): qHTS; also: % is scaled to controls: 0 for no effect and ±100 for the full control effect; nearly all actives have a fitted effect of over 50% in size
- Condition Label: purified TrxR1 substrate turnover, NADPH consumption readout; series mostly up to 114 µM
- Source text: The selenoprotein thioredoxin reductase (TrxR; EC 1.8.1.9) is a FAD containing homodimeric pyridine nucleotide-disulfide oxidoreductase with many cellular roles. Together with NADPH and its prime substrate thioredoxin (Trx), the enzyme forms the core of the Trx system. […] This BioAssay is a validation of an NADPH fluorescence-based, dual-purpose qHTS rTrxR1 assay designed to find potential inhibitors and substrates of rTrxR1. […]
Out of some 390,000 compounds screened, about 55 (0.01%) were called active. A selection follows.
Readout Kind: activity change, negative = substrate turnover

Example cases with answers are listed next.
- Molecule: "O=C(CCCn1c(=O)c2cccn2c2cccnc21)NCc1ccc(F)cc1"
  Assay Value: "inactive"
- Molecule: "Cc1nnc(C)n1-c1ccc(C(=O)Nc2cccc(Br)c2)cc1"
  Assay Value: "inactive"
- Molecule: "CN(N=O)c1ccc(C=C2c3ccccc3-c3ccccc32)cc1"
  Assay Value: "inactive"
- Molecule: "Clc1cccc[n+]1CCCC[n+]1ccccc1Cl"
  Assay Value: "inactive"
- Molecule: "CCCCCCC1(C)NC(c2ccc3c(c2)OCO3)=CC(c2ccccc2O)N1 (configuration not stated)"
  Assay Value: "inactive"
- Molecule: "O=C(COc1ccccc1)OCc1cc(=O)n2nc(-c3cccs3)sc2n1"
  Assay Value: "inactive"
- Molecule: "Cc1ccc(Cn2cnc3c(cnn3C(C)(C)C)c2=O)c(F)c1"
  Assay Value: "inactive"
- Molecule: "O=C(c1ccc2c(=O)n(Cc3ccco3)c(=S)[nH]c2c1)N1CCCC1"
  Assay Value: "inactive"
- Molecule: "Cc1cccc(NC(=O)c2ccc3nc(C(C)C)oc3c2)c1C"
  Assay Value: "inactive"
- Molecule: "CCOc1ccc(N2CC(C)Cn3c2nc2c3c(=O)n(Cc3c(F)cccc3Cl)c(=O)n2C)cc1 (configuration not stated)"
  Assay Value: "inactive"

Can you share its activity change, negative = substrate turnover? I mean this molecule: CCC(=O)N1CCc2cc(Br)cc(S(=O)(=O)NCc3ccc(Cl)cc3)c21
inactive

Which activity change, negative = substrate turnover is listed for COc1ccc(CN(Cc2ccccc2)C(=O)c2ccc(O)cc2)cc1COc1ccc(NC(C)=O)cc1 ?
inactive

So what does the record say about activity change, negative = substrate turnover for Oc1ccc(Br)cc1C1C=C(c2ccc3c(c2)OCO3)NC(c2ccc(Cl)cc2)N1 (configuration not stated) ?
6.51% [at 0.0914 µM] (inactive)

Look at this molecule and give its reported activity change, negative = substrate turnover. COc1cc2nc(Cl)nc(NC3CC3)c2cc1OC
inactive

Given COc1ccc(CCNC(=O)CCCCn2c(=O)c3ccccc3n(Cc3ccccc3C)c2=O)cc1OC , state its recorded activity change, negative = substrate turnover.
inactive

Can you share its activity change, negative = substrate turnover? I mean this molecule: CCOC(=O)c1cc(-c2ccccc2)n(-c2cccc(C(=O)Nc3cc(OC)cc(OC)c3)c2)c1C
inactive

Quick one: activity change, negative = substrate turnover for CN(Cc1ccccc1)c1ccc(/C=C/c2ccnc3ccccc23)cc1 ?
inactive

Dear colleague, I am looking for the recorded activity change, negative = substrate turnover of the following molecule: Brc1cccc[n+]1Cc1cccc(C[n+]2ccccc2Br)c1
inactive

Which measured activity change, negative = substrate turnover value corresponds to COc1cc(OC)c(OC)cc1/C=C1\C=Cc2ccccc21 ?
6.44% [at 0.0914 µM] (inactive)

Which activity change, negative = substrate turnover reading was recorded for the molecule COc1cc2[nH]c(=O)n(Cc3ccc(C(=O)NCc4ccc(C)cc4)cc3)c(=O)c2cc1OC ?
3.98% [at 2.29 µM] (inactive)

What value of activity change, negative = substrate turnover has been recorded for this entry: OCC(O)C(O)C(O)C(O)C=Nc1ccc(/C=C/c2ccnc3ccccc23)cc1 (configuration not stated)
5.9% [at 0.0914 µM] (inactive)

Look at this molecule and give its reported activity change, negative = substrate turnover. NC(=O)Nc1ccc(/C=C/c2ccnc3ccccc23)cc1
inactive

---

- Assay System: Thioredoxin reductase 1, cytoplasmic (Rattus norvegicus) (UniProt O89049)
- Sequence (O89049 whole entry, looked up): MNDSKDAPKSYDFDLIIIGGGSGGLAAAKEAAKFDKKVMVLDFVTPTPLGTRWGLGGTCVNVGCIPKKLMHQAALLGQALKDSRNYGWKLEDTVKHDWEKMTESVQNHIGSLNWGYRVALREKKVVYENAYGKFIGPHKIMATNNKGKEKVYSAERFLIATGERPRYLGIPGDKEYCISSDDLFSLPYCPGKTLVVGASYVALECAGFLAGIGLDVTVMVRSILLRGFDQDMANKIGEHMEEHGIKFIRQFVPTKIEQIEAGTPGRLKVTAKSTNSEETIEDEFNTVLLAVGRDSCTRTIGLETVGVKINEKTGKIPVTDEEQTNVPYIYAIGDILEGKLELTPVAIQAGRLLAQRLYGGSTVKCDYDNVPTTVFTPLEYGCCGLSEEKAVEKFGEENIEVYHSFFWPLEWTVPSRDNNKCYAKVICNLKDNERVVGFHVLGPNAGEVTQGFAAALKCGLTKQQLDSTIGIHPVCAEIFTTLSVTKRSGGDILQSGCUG
- Test Details: qHTS Assay for Substrates of Mammalian Selenoprotein Thioredoxin Reductase 1 (TrxR1): qHTS; also: % is scaled to controls: 0 for no effect and ±100 for the full control effect; nearly all actives have a fitted effect of over 50% in size
- Condition Label: purified TrxR1 substrate turnover, NADPH consumption readout; series mostly up to 114 µM
The whole screen tested about 390,000 compounds, of which about 55 (0.01%) were called active. A selection follows.
Readout Kind: activity change, negative = substrate turnover

Study these solved cases before continuing.
- Smiles String: "C=COC(=O)N1CCN(/[N+]([O-])=N/Oc2ccc([N+](=O)[O-])cc2[N+](=O)[O-])CC1"
  Assay Value: "10.5% [at 0.457 µM] (inactive)"
- Smiles String: "CSc1cccc(NC(=O)CN2C(=O)CCc3cc(S(=O)(=O)N4CCCCC4)ccc32)c1"
  Assay Value: "inactive"
- Smiles String: "CN(C)c1ccc(C=Nc2ccc(/C=C/c3ccnc4ccccc34)cc2)cc1"
  Assay Value: "inactive"
- Smiles String: "O=C1CCC[C@@H]2C[C@@]3(C[C@@H]4CCN1[C@H]24)Nc1ccccc1NC3=NCc1ccccc1"
  Assay Value: "inactive"

Field: next compound
Looking for the measured activity change, negative = substrate turnover of CC(C)(C)c1ccc(C(=O)C[n+]2cccc3cc(Cl)ccc32)cc1 , can you help?
inactive

---

- Assay System: Thioredoxin reductase 1, cytoplasmic (Rattus norvegicus) (UniProt O89049)
- Test Details: qHTS Assay for Substrates of Mammalian Selenoprotein Thioredoxin Reductase 1 (TrxR1): qHTS; also: % is scaled to controls: 0 for no effect and ±100 for the full control effect; nearly all actives have a fitted effect of over 50% in size
- Condition Label: purified TrxR1 substrate turnover, NADPH consumption readout; series mostly up to 114 µM
In all, about 390,000 compounds went through this assay and about 55 (0.01%) were called active. Not all results are given here.
Readout Kind: activity change, negative = substrate turnover

# count of solved cases: 5
- Compound: "CCc1ccc(Sc2cc(C(=O)NCCCOC(C)C)c3ccccc3n2)cc1"
  Assay Value: "inactive"
- Compound: "COc1ccccc1CNC(=O)C(=O)NCC(c1ccco1)S(=O)(=O)c1ccc(F)cc1 (stereo not given)"
  Assay Value: "inactive"
- Compound: "C(=Nc1ccc(/C=C/c2ccnc3ccccc23)cc1)Nc1ccc(/C=C/c2ccnc3ccccc23)cc1"
  Assay Value: "inactive"
- Compound: "O=C(CSc1nc2c(c(=O)[nH]1)CN(Cc1ccc(F)cc1)CC2)Nc1ccccc1Cl"
  Assay Value: "inactive"
- Compound: "SCc1nc2ccc(Cl)cc2[nH]1"
  Assay Value: "inactive"

Sample CCC(C(=O)Nc1cccc(-c2nc3cccnc3s2)c1C)c1ccccc1 (stereo not given) — what was its activity change, negative = substrate turnover?
inactive

Fill in the blank: the reported activity change, negative = substrate turnover of O=C(COc1ccccc1C(=O)Nc1ccccc1)Nc1cccc(F)c1 is ____.
inactive

Which activity change, negative = substrate turnover is reported for this compound? COc1ccc(CCNC(=O)CCCn2c(=O)c3ccccc3n(Cc3ccc(C)cc3)c2=O)cc1OC
inactive

Data origin, for the record: PubChem BioAssay AID588456
